The reported numbers originate from patent US20230220062A1.

Molecular target: T1, recombinant human IL-19 (human, UniProt Q9UHD0 25-177)
T1 construct: also called human IL-19 recombinant protein; interleukin-19
T1 sequence: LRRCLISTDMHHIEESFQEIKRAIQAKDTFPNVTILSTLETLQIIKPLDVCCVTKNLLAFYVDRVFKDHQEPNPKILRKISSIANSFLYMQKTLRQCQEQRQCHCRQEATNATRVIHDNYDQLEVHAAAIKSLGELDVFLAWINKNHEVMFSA
Experiment: BLI; immobilized antibody loaded with 100 nM human IL-19, then competitor human IL-20R beta Fc-fusion added; the response is that of the receptor-Fc step
Parameter: IL-20R beta Fc protein binding response (nm)
Please give the number followed by its unit.

Some solved entries appear below for comparison.
{"columns": ["Binder", "Result"],
 "data": [
  ["murine derived IL-19 Ab 5 (M_5) (antibody, mouse IgG1, kappa, V domains shown) VH: EVQLQQSGPVLVKPGASVKMSCKASGYPFNDYFLGWVKQSHGKSLEWIGSINPDNDYTMSNQKFKGKATLTVDKSSSTAYMELNSLTSEDSAVYYCARYDYDWAWFAHWGQGTLVTVSA VL: DIVMTQSPSSLAMSVGQKVTMSCKSSQSLLSSYNQKNYLAWYQRKPGQSPKLLVYFASQRATGVPDRFIGSGSGSDFTLTISSVQAEDLADYFCQQHTRLPITFGAGTKLELKR", "-0.0124 nm"],
  ["murine derived IL-19 Ab 3 (M_3) (antibody, mouse IgG1, kappa, V domains shown) VH: QIQLVQSGPELKKPGETVKISCKASGYTFTTYGMSWVKQAPGKGLKWMVWINTYSGVPTYVDDFKGRFAFSLETSASTAYLQINNLKNEDTATYFCARRDEGFAYWGQGTLVTVSA VL: DIKMTQSPSSMYASLGERVTITCKASQDINSYLSWFQQKPGKSPKTLIYRANRLVDGVPSRFSGSGSGQDYSLTISSLEYEDMGIYFCLQYDDFPYTFGGGTKLEIKR", "0.354 nm"],
  ["murine derived IL-19 Ab 2 (M_2) (antibody, mouse IgG1, kappa, V domains shown) VH: LVQLQQSDAELVKPGASLKISCKVSGYTFTDHALHWMKQRPEQGLEWIGYIYPRDGSTKYNEKFKGKATLTADRSSSTAYMELNSLTSEDSAVYFCARGWDFAMDYWGQGTSVTVSS VL: DIVLTQSPESLAVSLGQRATISCRASESVDNYGISFIHWYQQKPGQPPKLLIYRASNLKSGIPARFSGRGSRTDFTLTINPVETDDVATYYCQQINKDPLTFGAGTKLELKR", "0.361 nm"],
  ["murine derived IL-19 Ab 1 (M_1) (antibody, mouse IgG1, kappa, V domains shown) VH: EVQLQQSGPVLVKPGASVKMSCKASGYKFTDYFVGWVKQSHGKSLEWIGYVDPENGYTRCNQKFKGKATLTVDKSSSTAYMELNSLTSEDSAVYYCARYDYDWAWFTNWGQGTLVTVSA VL: DIVMTQSPSSLAMSVGQKVTMSCKSSQSLLSSYNQKNYLAWYQQKPGQSPKLLVYFASTRPPGVPDRFIGSGSGSDFTLTISSVQAEDLADYFCQQHERLPITFGAGTKLELKR", "-0.0075 nm"]
]}

Quick note, IL-20R beta Fc protein binding response (nm) for rabbit derived IL-19 Ab 39 (R_39) (antibody, V domains shown) VH: QEQLKESGGGLVQPGGSLKLSCKASGFDLSSYGVSWVRQAPGKGLEWIGYIDPVFGSTYYANWVNGRFTISSDNAQNTLYLQLNSLTAADTATYFCARGSGYVYYGYTYDLWGPGTLVTVSS VL: DIVMTQTPASVEAAVGGTVTIKCQASQSIYRYLSWYQQKPGQRPKLLIYGASNLASGVSSRFKGSGSGTEFTLTISDLECADAATYYCQSYYYSSSSGYGNVFGGGTEVVVKG landed at -0.0421 nm
